- SYSTEM NAME: human PPAR γ 2 (Homo sapiens, UniProt P37231)
- Sequence (P37231 whole entry): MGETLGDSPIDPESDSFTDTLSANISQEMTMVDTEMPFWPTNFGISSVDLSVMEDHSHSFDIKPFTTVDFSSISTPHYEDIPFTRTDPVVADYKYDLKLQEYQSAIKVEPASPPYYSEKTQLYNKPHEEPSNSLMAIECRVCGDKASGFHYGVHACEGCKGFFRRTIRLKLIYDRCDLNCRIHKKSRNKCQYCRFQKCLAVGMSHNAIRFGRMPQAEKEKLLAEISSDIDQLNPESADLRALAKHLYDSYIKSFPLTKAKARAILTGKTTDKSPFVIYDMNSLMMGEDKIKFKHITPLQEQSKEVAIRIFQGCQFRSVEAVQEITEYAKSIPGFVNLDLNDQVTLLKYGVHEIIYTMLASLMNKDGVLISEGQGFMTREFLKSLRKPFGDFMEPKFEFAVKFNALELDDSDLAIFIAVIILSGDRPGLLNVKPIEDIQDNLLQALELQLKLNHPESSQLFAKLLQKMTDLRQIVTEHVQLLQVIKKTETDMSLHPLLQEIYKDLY
- EXPERIMENT DESCRIPTION: Inhibitory activity against PPAR γ transcription in the presence of agonist compound A, luciferase reporter
- CONDITIONS USED: in the presence of 10 nM compound A (agonist); MG63 cells transfected with pSG5-hPPARg and pGV-P2-PPRE; 24 hr
Structures can show the parent of a compound that is named as a salt.
IC50 less than 30 nM is class 1; IC50 greater than or equal to 30 nM is class 0.

COMPOUND	ASSIGNED LABEL
CCCNc1ccc(NC(=O)c2cc([N+](=O)[O-])ccc2Cl)cc1	class 1
O=C(Nc1ccc(S(=O)(=O)N2CCOCC2)cc1)c1cc([N+](=O)[O-])ccc1Cl	class 0

[Q] Check if IC50 falls below 30 nM for O=C(Nc1ccc(-c2ccc(NC(=S)Nc3ccncc3)cc2)cc1)c1cc([N+](=O)[O-])ccc1Cl .
[A] class 1

[Q] Check if IC50 falls below 30 nM for CCCCCCCCN(CCCC)c1ccc(-c2ccc(NC(=O)c3cc([N+](=O)[O-])ccc3Cl)cc2)cc1.Cl [Example 223, mono-hydrochloride] .
[A] class 0

[Q] Check if IC50 falls below 30 nM for CCS(=O)(=O)Nc1ccc(NC(=O)c2cc([N+](=O)[O-])ccc2Cl)cc1 .
[A] class 1

[Q] Check if IC50 falls below 30 nM for O=C(Nc1ccc(S(=O)(=O)Nc2ccc(Cl)nn2)cc1)c1cc([N+](=O)[O-])ccc1Cl .
[A] class 0

[Q] Check if IC50 falls below 30 nM for CCCN(CC)c1ccc(NC(=O)c2cc([N+](=O)[O-])ccc2Cl)cc1 .
[A] class 1

[Q] Check if IC50 falls below 30 nM for CCCCCCCCN(CCCC)c1ccc(-c2ccc(NC(=O)c3cc([N+](=O)[O-])ccc3Cl)cc2)cc1 .
[A] class 0

[Q] Check if IC50 falls below 30 nM for COc1cnc(NS(=O)(=O)c2ccc(NC(=O)c3cc([N+](=O)[O-])ccc3Cl)cc2)nc1 .
[A] class 0

[Q] Check if IC50 falls below 30 nM for O=C(Nc1ccc(C(=O)N2CCCCC2)cc1)c1cc([N+](=O)[O-])ccc1Cl .
[A] class 1

[Q] Check if IC50 falls below 30 nM for Nc1ccc(NC(=O)c2cc([N+](=O)[O-])ccc2Cl)cc1 [Example 58, mono-hydrochloride] .
[A] class 1

[Q] Check if IC50 falls below 30 nM for O=C(Nc1cccnc1)c1cc([N+](=O)[O-])ccc1Cl .
[A] class 0

[Q] Check if IC50 falls below 30 nM for O=C(Nc1ccc(CCO)cc1)c1cc([N+](=O)[O-])ccc1Cl .
[A] class 1

[Q] Check if IC50 falls below 30 nM for CCCCCCN(CC)c1ccc(NC(=O)c2cc([N+](=O)[O-])ccc2Cl)cc1 .
[A] class 0

[Q] Check if IC50 falls below 30 nM for CC(=O)Nc1ccc(-c2ccc(NC(=O)c3cc([N+](=O)[O-])ccc3Cl)cc2)cc1 .
[A] class 1

[Q] Check if IC50 falls below 30 nM for Cc1nccc(-c2cccc(NC(=O)c3cc([N+](=O)[O-])ccc3Cl)c2)n1 .
[A] class 1

---

- Test system: ABCA1 mRNA
- EXPERIMENT DESCRIPTION: Quantitative analysis of ABCA1 mRNA (TaqMan PCR) in RAW264.7 cells
- Type: cell-based, mouse
- CONDITIONS USED: 100 nM test compound, 24 hr, normalised to β-actin, DMSO = 100
READOUT TYPE: Rate of Increase (%) of ABCA1 mRNA
Express the result in % but write the number alone.

[Q] Fill in: Rate of Increase (%) of ABCA1 mRNA of CCCCCCCCN(CCCC)c1ccc(-c2ccc(NC(=O)c3cc([N+](=O)[O-])ccc3Cl)cc2)cc1.Cl [Example 223] is ___
[A] 204.0

[Q] Fill in: Rate of Increase (%) of ABCA1 mRNA of CCN(CC)c1ccc(-c2ccc(NC(=O)c3cc([N+](=O)[O-])ccc3Cl)cc2)cc1 [Example 217] is ___
[A] 187.0

[Q] Fill in: Rate of Increase (%) of ABCA1 mRNA of CCCCCCCCN(CCC)c1ccc(-c2ccc(NC(=O)c3cc([N+](=O)[O-])ccc3Cl)cc2)cc1 [Example 224] is ___
[A] 179.0

[Q] Fill in: Rate of Increase (%) of ABCA1 mRNA of O=C(Nc1ccc(-c2ccc(O)cc2)cc1)c1cc([N+](=O)[O-])ccc1Cl [Example 135] is ___
[A] 163.0

[Q] Fill in: Rate of Increase (%) of ABCA1 mRNA of O=C(Nc1ccc(CCNC(=S)Nc2cccnc2)cc1)c1cc([N+](=O)[O-])ccc1Cl [Example 273] is ___
[A] 146.0

[Q] Fill in: Rate of Increase (%) of ABCA1 mRNA of CCN(C)c1ccc(-c2ccc(NC(=O)c3cc([N+](=O)[O-])ccc3Cl)cc2)cc1 [Example 218] is ___
[A] 190.0
